Data origin, for the record: patent US20250361268A1

biological target: FPR2 (Homo sapiens); construct: expressed in transfected cells; host or cells: RBL cells (RBL-FPR2); assay: Change in calcium activity by peptide (Fura-2) in RBL cells overexpressing FPR2; type: cell-based; settings: calcium activity (Fura-2), graded per Table 3, read-out: EC50 for [Ca^2+] FPR2
Sequence (P25090 whole entry, species assumed): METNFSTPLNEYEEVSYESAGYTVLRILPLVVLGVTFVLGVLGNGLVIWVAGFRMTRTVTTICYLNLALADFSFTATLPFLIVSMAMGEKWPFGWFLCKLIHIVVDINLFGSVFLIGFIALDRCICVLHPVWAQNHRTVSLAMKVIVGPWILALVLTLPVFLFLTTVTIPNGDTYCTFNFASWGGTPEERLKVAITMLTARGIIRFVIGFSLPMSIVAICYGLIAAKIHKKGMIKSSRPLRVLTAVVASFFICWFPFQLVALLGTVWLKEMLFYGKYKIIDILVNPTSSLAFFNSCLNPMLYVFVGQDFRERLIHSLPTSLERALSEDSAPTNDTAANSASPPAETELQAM
pEC50: −log10 of the molar value. Peptide text beside a SMILES is read from it.
Below, each entry is listed alongside its reported pEC50.
PROPERTY_NAME: pEC50

1) CSCC[C@@H](NC(=O)[C@@H](NC(=O)[C@H](CC(C)C)NC(=O)[C@H](Cc1ccc(O)cc1)NC(=O)[C@H](CCCNC(=N)N)NC(=O)[C@H](Cc1c[nH]c2ccccc12)NC(=O)[C@@H](N)CCCNC(=N)N)C(C)C)C(N)=O [Peptide 158] (HELM PEPTIDE1{R.W.R.Y.L.V.[dM].[am]}$$$$V2.0)    7.00 to 7.96
2) CCCC(=O)N[C@@H](CCSC)C(=O)N[C@@H](CCCNC(=N)N)C(=O)N[C@@H](Cc1ccc(O)cc1)C(=O)N[C@@H](CCCCN)C(=O)N[C@@H](Cc1ccc(O)cc1)C(=O)N[C@H](CCSC)C(N)=O [Peptide 43] (HELM PEPTIDE1{[CCCC(=O)[*:2]].M.R.Y.K.Y.[dM].[am]}$$$$V2.0)    7.00 to 7.96
3) CSCC[C@H](NC(=O)[C@@H](N)CCCNC(=N)N)C(=O)N[C@@H](CCCNC(=N)N)C(=O)N[C@@H](Cc1ccc(O)cc1)C(=O)N[C@@H](Cc1c[nH]c2ccccc12)C(=O)N1CCC[C@H]1C(=O)N[C@H](CCSC)C(N)=O [Peptide 106] (HELM PEPTIDE1{R.M.R.Y.W.P.[dM].[am]}$$$$V2.0)    > 8.00
4) CSCC[C@H](NC(=O)[C@H](CCCNC(=N)N)NC(C)=O)C(=O)N[C@@H](CCCNC(=N)N)C(=O)N[C@@H](Cc1ccc(O)cc1)C(=O)N[C@@H](Cc1ccc(O)cc1)C(=O)N[C@@H](Cc1ccc(O)cc1)C(=O)N[C@H](CCSC)C(N)=O [Peptide 125] (HELM PEPTIDE1{[ac].R.M.R.Y.Y.Y.[dM].[am]}$$$$V2.0)    > 8.00
5) CSCC[C@@H](NC(=O)[C@@H](NC(=O)[C@H](Cc1ccc(O)cc1)NC(=O)[C@H](Cc1ccc(O)cc1)NC(=O)[C@H](CCCNC(=N)N)NC(=O)[C@H](Cc1c[nH]c2ccccc12)NC(C)=O)C(C)C)C(N)=O [Peptide 95] (HELM PEPTIDE1{[ac].W.R.Y.Y.V.[dM].[am]}$$$$V2.0)    7.00 to 7.96
6) CCCC(=O)N[C@H](C(=O)N[C@@H](CCCCN)C(=O)N[C@@H](Cc1ccc(O)cc1)C(=O)N[C@@H](CCCCN)C(=O)N[C@H](C(=O)N[C@H](CCSC)C(N)=O)C(C)C)[C@@H](C)CC [Peptide 136] (HELM PEPTIDE1{[CCCC(=O)[*:2]].I.K.Y.K.V.[dM].[am]}$$$$V2.0)    > 8.00
7) CC[C@H](C)[C@H](N)C(=O)N[C@@H](CCCCN)C(=O)N[C@@H](Cc1ccc(O)cc1)C(=O)N[C@@H](CCCCN)C(=O)N1CCC[C@H]1C(=O)N[C@H](CCSC)C(N)=O [Peptide 142] (HELM PEPTIDE1{I.K.Y.K.P.[dM].[am]}$$$$V2.0)    > 8.00
